Parameter EC50: see the listing below.
- target_desc: monkey MSLN full-length protein expressed on HEK293T cells (HEK293T-monkey MSLN) (monkey)
- method_notes: FACS on HEK293T-monkey MSLN cells
endpoint_label: EC50 (nM)

binder="S009-F8-19.21 (antibody, human IgG1, kappa, V domains shown) VH: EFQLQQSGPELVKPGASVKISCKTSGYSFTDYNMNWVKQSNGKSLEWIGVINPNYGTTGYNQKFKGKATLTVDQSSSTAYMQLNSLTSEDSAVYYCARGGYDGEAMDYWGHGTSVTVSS VL: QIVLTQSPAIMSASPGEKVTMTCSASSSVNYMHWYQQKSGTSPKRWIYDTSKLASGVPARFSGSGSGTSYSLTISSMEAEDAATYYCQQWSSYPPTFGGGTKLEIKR" endpoint_label=EC50 recorded_number=0.3
binder="S009-F8-18.9 (antibody, human IgG1, kappa, V domains shown) VH: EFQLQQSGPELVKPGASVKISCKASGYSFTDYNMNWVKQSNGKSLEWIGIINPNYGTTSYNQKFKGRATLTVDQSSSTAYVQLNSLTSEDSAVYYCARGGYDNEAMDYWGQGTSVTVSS VL: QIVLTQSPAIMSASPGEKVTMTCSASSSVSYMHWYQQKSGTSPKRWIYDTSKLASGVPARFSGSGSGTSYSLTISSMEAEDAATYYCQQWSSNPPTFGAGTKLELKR" endpoint_label=EC50 recorded_number=0.81
binder="S009-F8-22.23 (antibody, human IgG1, kappa, V domains shown) VH: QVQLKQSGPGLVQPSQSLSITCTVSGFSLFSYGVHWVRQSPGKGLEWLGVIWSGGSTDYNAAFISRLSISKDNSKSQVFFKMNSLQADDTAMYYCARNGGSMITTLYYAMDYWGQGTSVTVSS VL: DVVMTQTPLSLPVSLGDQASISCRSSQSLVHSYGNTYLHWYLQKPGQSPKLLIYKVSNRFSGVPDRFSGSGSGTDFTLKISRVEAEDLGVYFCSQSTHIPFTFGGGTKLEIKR" endpoint_label=EC50 recorded_number=1.09
